// EC50 lookup, one value per entry
Molecular target: T1, human TNFR2 on the cell membrane (human, UniProt P20333 23-461)
T1 construct: whole, on cells; One molecule for all cell formats; also called TNFR2-CHO cells; CHO-TNFR2
T1 sequence (looked up): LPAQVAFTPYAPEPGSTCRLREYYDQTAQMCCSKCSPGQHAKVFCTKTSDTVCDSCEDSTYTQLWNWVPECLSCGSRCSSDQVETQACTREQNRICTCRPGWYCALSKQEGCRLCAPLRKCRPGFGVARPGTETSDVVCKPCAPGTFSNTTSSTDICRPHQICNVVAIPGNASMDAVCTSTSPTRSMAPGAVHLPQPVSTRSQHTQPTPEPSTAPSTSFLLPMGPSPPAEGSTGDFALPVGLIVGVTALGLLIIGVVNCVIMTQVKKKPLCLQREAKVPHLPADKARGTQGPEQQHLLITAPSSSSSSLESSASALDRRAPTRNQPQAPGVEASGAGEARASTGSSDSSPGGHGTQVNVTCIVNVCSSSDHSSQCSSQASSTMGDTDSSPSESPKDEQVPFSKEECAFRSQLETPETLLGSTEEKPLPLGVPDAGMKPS
Assay: flow cytometry on CHO-TNFR2 cells
Form entry: value (µg/mL) — number only.

binder	unitLabel	number
11G2huVH1 + huVL1(P07262) (antibody, V domains shown, Humanized 11G2) VH: QVQLVQSGAEVKKPGASVKLSCKASGYTFITYDINWVRQAPGQGLEWIGWIYPRDGNTQFNENFKGKATMTVDESTSTAYMEVRSLRSDDTAVYYCARGDRDYGYFDVWGQGTTVTVSS VL: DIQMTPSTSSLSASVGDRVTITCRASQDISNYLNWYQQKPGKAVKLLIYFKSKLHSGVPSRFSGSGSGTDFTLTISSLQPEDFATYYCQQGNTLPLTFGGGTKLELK	µg/mL	0.0009

Kindly review the next binder as well.
Query: # query: EC50 of entry 11G2huVH2 + huVL1(P07263) (antibody, V domains shown, Humanized 11G2) VH: QVQLVQSGAEVKKPGASVKVSCKASGYTFITYDINWVRQAPGQGLEWIGWIYPRDGNTQFNENFKGRVTMTTDTSTSTAYMELRSLRSDDTAVYYCARGDRDYGYFDVWGQGTTVTVSS VL: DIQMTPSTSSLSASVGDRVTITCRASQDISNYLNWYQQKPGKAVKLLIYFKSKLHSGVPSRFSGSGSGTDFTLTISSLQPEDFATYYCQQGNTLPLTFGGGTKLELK
Result: 0.0229
